System: P388 leukemia ip, CD2F1 mice, survival T/C
Assay: NCI In Vivo Anticancer Drug Screen. Data for tumor model P388 Leukemia (intraperitoneal) in CD2F1 (CDF1) mice
Settings: endpoint: median survival time; dose: 120.0 mg/kg/injection; schedule: Q01DX005 (ip); vehicle: saline with Tween-80; higher = longer survival
Inconclusive results and toxic doses are left out.
Listing of entries alongside the reported T/C.

- compound: "CCOC1(C(C)O)CC(c2ccccc2)=NO1 (stereo unspecified)"
  T/C: "101 % of control"
- compound: "OC1c2ccccc2-c2cccc(N=Cc3ccc4c(c3)OCO4)c21 (stereo unspecified)"
  T/C: "97 % of control"
- compound: "CCN(CC)c1cccc(OC(=O)Nc2cccc(C(F)(F)F)c2)c1"
  T/C: "94 % of control"
- compound: "COc1ccc(OC)c(NC(=O)CCCC(=O)CC(=O)C(C)(C)C)c1"
  T/C: "104 % of control"
- compound: "COc1ccc(C(O)c2cnc(C)n2Cc2ccccc2)cc1 (stereo unspecified)"
  T/C: "100 % of control"
- compound: "S=C(SCc1nc(-c2ccc(Cl)cc2)no1)N1CCSCC1"
  T/C: "92 % of control"

Where these numbers come from: PubChem BioAssay AID330
